testDetails: endothelial E-selectin expression blockers – imaging, HUVEC, immunofluorescence, MLSMR starter and 10KST1 sets, primary screen (AID 487);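 also: signal is fraction of cell area covered by stained E-selectin grains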
setupConditions: HUVEC TNFalpha-induced E-selectin immunofluorescence imaging, at 2 µM; hits give high values
Lab note: anything with inhibition at or over -40% counts as true (1); the rest go in false (0).

{"compound": "CCOC(=O)c1cnc(SC2CC(=O)N(c3ccc(OC)c(OC)c3)C2=O)nc1N (centres undefined)", "cat": "false (0)"}
{"compound": "CN(C)CCCOC(=O)CCc1ccccc1", "cat": "true (1)"}
{"compound": "CN(C)c1ccc2c(c1)OC(N)=C(C#N)C2c1cccc(F)c1 (centres undefined)", "cat": "true (1)"}
{"compound": "N#Cc1cnc(SCCc2ccccc2)nc1N", "cat": "true (1)"}
{"compound": "COc1ccc(Cl)cc1S(=O)(=O)n1cnc2ccccc21", "cat": "false (0)"}
{"compound": "Cc1ccc(N2C(=O)c3oc4ccccc4c(=O)c3C2c2cccc(O)c2)nc1 (centres undefined)", "cat": "true (1)"}
{"compound": "COc1ccc(-c2nnc(-c3ccc(N)cc3)o2)cc1", "cat": "false (0)"}
{"compound": "Cc1ccccc1Nc1nc(N)nc(CSCc2c(C)noc2C)n1", "cat": "true (1)"}
{"compound": "Cc1cccc(-c2nnc(SCC#N)n2-c2cccc(Cl)c2)c1", "cat": "true (1)"}
{"compound": "CCOCCCNC(=O)c1ccc2c(c1)N(Cc1ccccc1)C(=O)CS2=O (centres undefined)", "cat": "true (1)"}
{"compound": "CCc1nc(N)c(C#N)c(-c2ccncc2)c1C", "cat": "true (1)"}
{"compound": "COc1ccccc1OCC(=O)NCC1CCCCC1", "cat": "true (1)"}
{"compound": "CCOc1ccccc1OCC(=O)NCc1ccco1", "cat": "true (1)"}
{"compound": "O=S(=O)(NC1CCCC1)c1ccc(S(=O)(=O)N2CCc3ccccc32)cc1", "cat": "true (1)"}
{"compound": "COC(=O)c1ccccc1NC(=O)c1ccc(-c2ccccc2F)o1", "cat": "true (1)"}
{"compound": "Cc1ccc(N2CCN(C(=S)c3ccc(N(C)C)cc3)CC2)cc1", "cat": "false (0)"}
{"compound": "Cc1cccc(NC(=O)Nc2cccc(C#N)c2)n1", "cat": "false (0)"}
{"compound": "Cc1cccc(N2CCN(C(=O)C3CCCN(S(=O)(=O)c4cnc[nH]4)C3)CC2C)c1 (centres undefined)", "cat": "true (1)"}
{"compound": "COC(=O)Cc1c(C)nc2nc[nH]n2c1=O", "cat": "true (1)"}
{"compound": "Cc1nc2sc(C(c3cccs3)N3CCC(C(N)=O)CC3)c(O)n2n1 (centres undefined)", "cat": "false (0)"}
{"compound": "Cc1ccccc1Cn1ccc(NC(=O)c2onc(C)c2Cl)n1", "cat": "false (0)"}
{"compound": "Cc1nnc(SCc2cn3ccsc3n2)n(N)c1=O", "cat": "false (0)"}
{"compound": "Cc1nn(S(=O)(=O)N2CCCCC2)c(C)c1Br", "cat": "false (0)"}
{"compound": "CCOC(=O)N1CCC(N2C(=O)c3ccccc3C2Nc2cc(Cl)c(OC)cc2OC)CC1 (centres undefined)", "cat": "true (1)"}
